Each entry below carries its reported pEC50.
- SUBJECT OF TEST: ArpA (Streptomyces griseus, UniProt Q9ZN78)
- Sequence (Q9ZN78 whole entry): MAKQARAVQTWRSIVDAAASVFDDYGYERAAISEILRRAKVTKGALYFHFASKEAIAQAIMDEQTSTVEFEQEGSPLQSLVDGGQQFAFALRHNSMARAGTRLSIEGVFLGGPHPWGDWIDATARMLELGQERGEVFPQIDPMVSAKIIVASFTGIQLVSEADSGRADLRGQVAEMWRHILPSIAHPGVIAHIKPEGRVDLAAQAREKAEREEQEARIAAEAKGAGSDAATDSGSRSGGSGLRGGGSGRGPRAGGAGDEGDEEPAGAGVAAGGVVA
- MEASUREMENT DESCRIPTION: E. coli pTOTAL biosensor, GFP derepression dose-response
Worth noting: pEC50 values are minus log10 of concentrations stated in mol/L.

MOLECULE	pEC50
CC(C)CCCC[C@@H](O)[C@@H]1C(=O)OC[C@H]1CO [SCB1]	4.74

Moving on to the next molecule.
Notebook: pull reported pEC50 for ArpA (Streptomyces griseus, UniProt Q9ZN78), entry CC(C)CCCCC(=O)C1C(=O)OC[C@H]1CO (some centres unmarked) [A-factor] 6.41
